Values were extracted from ChEMBL document CHEMBL4325869.

EXPERIMENTAL_SYSTEM: UniProt P08183
TEST_NAME: Inhibition of MDR1 (unknown origin) expressed in MDCK cells assessed as reduction in calcein-AM efflux preincubated for 30 mins followed by calcein-AM addition measured after 30 mins by spectrofluorimetric method
VALUE_TYPE: log10(IC50) (log10 of the value in nM)
Response schema: value (number) is log10 of IC50 in units of nM.

COc1cc2c(cc1OC)CN(CCCCCCOc1ccc3c(C)c(C)c(=O)oc3c1)CC2: 2.34
Cc1c(C)c2ccc(OCCCCN3CCc4ccccc4C3)cc2oc1=O: 2.96
COc1cc2c(cc1OC)CN(CCCCCOc1ccc3c(C)c(C)c(=O)oc3c1)CC2: 1.85
Cc1c(C)c2ccc(OCCN3CCc4ccccc4C3)cc2oc1=O: 4.18
COc1cc2c(cc1OC)CN(CCCOc1ccc3c(C)c(C)c(=O)oc3c1)CC2: 2.28
COc1cc2c(cc1OC)CN(CCCCCOc1ccc3c(C)c(-c4ccccc4)c(=O)oc3c1)CC2: 2.34
COc1cc2c(cc1OC)CN(Cc1cccc(COc3ccc4c(C)c(C)c(=O)oc4c3)c1)CC2: 2.20
COc1cc2c(cc1OC)CN(CCCCOc1ccc3c(C)c(C)c(=O)oc3c1)CC2: 2.18

For each of the items listed, what is its log10(IC50)?
1. COc1cc2c(cc1OC)CN(Cc1ccccc1COc1ccc3c(C)c(C)c(=O)oc3c1)CC2
2. COc1cc2c(cc1OC)CN(CCOc1ccc3c(C)c(C)c(=O)oc3c1)CC2
3. COc1cc2c(cc1OC)CN(C/C=C/COc1ccc3c(C)c(C)c(=O)oc3c1)CC2
4. Cc1c(C)c2ccc(OCCCCCN3CCc4ccccc4C3)cc2oc1=O
5. COc1cc2c(cc1OC)CN(Cc1cccc(COc3ccc4ccc(=O)oc4c3)c1)CC2
6. COc1cc2c(cc1OC)CN(CCCCCOc1ccc3cc(-c4ccccc4)c(=O)oc3c1)CC2
7. Cc1c(C)c2ccc(OCCCN3CCc4ccccc4C3)cc2oc1=O

2.20
2.58
3.00
2.74
2.89
2.59
3.43

====

EXPERIMENTAL_SYSTEM: ATP-dependent translocase ABCB1 (Homo sapiens)
Sequence (P08183 whole entry): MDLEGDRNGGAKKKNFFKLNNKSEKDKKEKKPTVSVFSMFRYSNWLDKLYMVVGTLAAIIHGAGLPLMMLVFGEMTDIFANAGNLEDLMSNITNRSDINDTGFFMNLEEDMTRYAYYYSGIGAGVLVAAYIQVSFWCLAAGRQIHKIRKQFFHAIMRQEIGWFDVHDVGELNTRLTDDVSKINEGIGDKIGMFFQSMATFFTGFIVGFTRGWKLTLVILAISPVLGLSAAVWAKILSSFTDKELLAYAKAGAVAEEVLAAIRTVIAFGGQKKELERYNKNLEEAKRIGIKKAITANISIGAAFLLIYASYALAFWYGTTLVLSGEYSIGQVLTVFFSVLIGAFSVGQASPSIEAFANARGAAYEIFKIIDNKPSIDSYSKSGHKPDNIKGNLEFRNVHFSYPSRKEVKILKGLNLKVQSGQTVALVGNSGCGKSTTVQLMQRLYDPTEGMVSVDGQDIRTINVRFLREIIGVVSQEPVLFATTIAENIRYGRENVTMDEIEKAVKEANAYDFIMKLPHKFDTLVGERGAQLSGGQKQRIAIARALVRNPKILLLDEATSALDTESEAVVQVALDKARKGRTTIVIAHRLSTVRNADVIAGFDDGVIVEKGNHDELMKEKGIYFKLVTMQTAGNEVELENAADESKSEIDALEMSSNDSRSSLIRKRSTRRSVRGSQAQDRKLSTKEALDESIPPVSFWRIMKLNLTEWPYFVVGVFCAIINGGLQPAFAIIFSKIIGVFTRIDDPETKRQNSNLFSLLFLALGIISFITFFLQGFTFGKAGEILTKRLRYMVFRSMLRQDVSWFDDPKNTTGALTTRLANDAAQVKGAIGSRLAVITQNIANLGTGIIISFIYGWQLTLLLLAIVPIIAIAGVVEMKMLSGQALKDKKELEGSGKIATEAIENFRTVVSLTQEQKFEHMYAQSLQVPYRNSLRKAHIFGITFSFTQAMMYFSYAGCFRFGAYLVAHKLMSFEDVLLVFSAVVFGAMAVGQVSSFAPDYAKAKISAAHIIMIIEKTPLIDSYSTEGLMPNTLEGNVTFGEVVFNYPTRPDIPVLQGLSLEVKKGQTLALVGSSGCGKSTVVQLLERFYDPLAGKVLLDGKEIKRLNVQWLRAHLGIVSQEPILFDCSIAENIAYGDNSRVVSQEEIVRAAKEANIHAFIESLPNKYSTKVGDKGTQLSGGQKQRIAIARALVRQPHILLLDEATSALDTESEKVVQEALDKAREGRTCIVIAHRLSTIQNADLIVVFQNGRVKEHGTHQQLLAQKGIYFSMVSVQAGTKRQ
TEST_NAME: Inhibition of MDR1 (unknown origin) expressed in MDCK cells assessed as reduction in calcein-AM efflux preincubated for 30 mins followed by calcein-AM addition measured after 30 mins by spectrofluorimetric method
Consider the following molecules; for each one, report its pIC50.
Give bare numbers, as −log10 of the molar value.

Check out these entries, answers already filled in.
COc1cc2c(cc1OC)CN(CCc1ccc(COc3ccc4c(C)c(C)c(=O)oc4c3)cc1)CC2: 6.72
COc1cc2c(cc1OC)CN(CC/C=C1\CCCc3c(OC)cccc31)CC2: 5.92
COc1cc2c(cc1OC)CN(CCCCOc1ccc3c(C)c(Cl)c(=O)oc3c1)CC2: 6.25
COc1cc2c(cc1OC)CN(CCCCCOc1ccc3c(C)c(Br)c(=O)oc3c1)CC2: 6.55

# context switch: different molecule, same pIC50
Returns the measured pIC50 for the input molecule. Input: COc1cc2c(cc1OC)CN(CCCCCOc1ccc3c(c1)oc(=O)c1ccccc13)CC2
6.48

====

Record form. Attribute: IC50. Fill in for each entry.
EXPERIMENTAL_SYSTEM: ATP-dependent translocase ABCB1 (Homo sapiens)
TEST_NAME: Inhibition of MDR1 (unknown origin) expressed in MDCK cells assessed as reduction in calcein-AM efflux preincubated for 30 mins followed by calcein-AM addition measured after 30 mins by spectrofluorimetric method
Numbers only, in nM.

Reference set, count: 2
COc1cc2c(cc1OC)CN(CCCCOc1ccc3cc(-c4ccccc4)c(=O)oc3c1)CC2: 410
COc1cc2c(cc1OC)CN(Cc1ccc(COc3ccc4c(C)c(C)c(=O)oc4c3)cc1)CC2: 190

Turning now to a further molecule:
Param item = COc1cc2c(cc1OC)CN(CCCCCOc1ccc3c(C)c(Cl)c(=O)oc3c1)CC2 ; retrieve measured IC50.
460
